Tested on: E. faecium ATCC 700221
Experiment: microbe, parasite or virus in culture
Format: cell-based
Settings: ATCC 700221
Where a SMILES comes first, the peptide text is derived from it. Bridges are numbered along the chain shown (N, C = ends). [ ]: non-standard residue; d: D form. The star is where a group is joined. Pentadecanoyl = CCCCCCCCCCCCCCC(=O)*; Tridecanoyl = CCCCCCCCCCCCC(=O)*; Undecanoyl = CCCCCCCCCCC(=O)*; dOrn = NCCC[C@@H](N)C(=O)O
Attribute Measured: MIC

• CCCCCCCCCCCCCCC(=O)N[C@H](CCCN)C(=O)N[C@H](C(=O)N[C@@H]1C(=O)N[C@H](CCCN)C(=O)N[C@@H](CO)C(=O)N[C@@H](Cc2ccc(O)cc2)C(=O)N[C@H](CCCCN)C(=O)N[C@H](CO)C(=O)N[C@@H]([C@@H](C)CC)C(=O)N2CCC[C@H]2C(=O)N[C@@H]([C@@H](C)CC)C(=O)N2CCC[C@H]2C(=O)N[C@@H]([C@@H](C)CC)C(=O)O[C@@H]1C)C(C)C [Compound B] (Pentadecanoyl-[dOrn]VT[dOrn]SY[dK][dS]IPIPI; ester 3-C; N-terminus assumed) = 4 µg/mL
• CCCCCCCCCCC(=O)N[C@H](CCCN)C(=O)N[C@H](C(=O)N[C@@H]1C(=O)N[C@H](CCCN)C(=O)N[C@@H](CO)C(=O)N[C@@H](Cc2ccc(O)cc2)C(=O)N[C@H](CCCCN)C(=O)N[C@H](CO)C(=O)N[C@@H]([C@@H](C)CC)C(=O)N2CCC[C@H]2C(=O)N[C@@H]([C@@H](C)CC)C(=O)N2CCC[C@H]2C(=O)N[C@@H]([C@@H](C)CC)C(=O)O[C@@H]1C)C(C)C [Compound C] (Undecanoyl-[dOrn]VT[dOrn]SY[dK][dS]IPIPI; ester 3-C; N-terminus assumed) = 8 µg/mL

We now examine a further compound.
Inquiry: Give reported MIC for CCCCCCCCCCCCC(=O)N[C@H](CCCN)C(=O)N[C@H](C(=O)N[C@@H]1C(=O)N[C@H](CCCN)C(=O)N[C@@H](CO)C(=O)N[C@@H](Cc2ccccc2)C(=O)N[C@H](CCCCN)C(=O)N[C@H](CO)C(=O)N[C@@H]([C@@H](C)CC)C(=O)N2CCC[C@H]2C(=O)N[C@@H]([C@@H](C)CC)C(=O)N2CCC[C@H]2C(=O)N[C@@H]([C@@H](C)CC)C(=O)O[C@@H]1C)C(C)C [Variant D] (Tridecanoyl-[dOrn]VT[dOrn]SF[dK][dS]IPIPI; ester 3-C; N-terminus assumed) (E. faecium ATCC 700221)
Reply text: 8 µg/mL

====

Test system: S. Typhimurium CVM 40117 (ctx-m-5)
Type: cell-based, Salmonella
Where a SMILES comes first, the peptide text is derived from it. Bridges are numbered along the chain shown (N, C = ends). [ ]: non-standard residue; d: D form. The star is where a group is joined. Pentadecanoyl = CCCCCCCCCCCCCCC(=O)*; Tridecanoyl = CCCCCCCCCCCCC(=O)*; Undecanoyl = CCCCCCCCCCC(=O)*; dOrn = NCCC[C@@H](N)C(=O)O
Attribute Measured: MIC (µg/mL)
Answers are plain numbers, in µg/mL.

A selection of reference data follows.
* CCCCCCCCCCCCC(=O)N[C@H](CCCN)C(=O)N[C@H](C(=O)N[C@@H]1C(=O)N[C@H](CCCN)C(=O)N[C@@H](CO)C(=O)N[C@@H](Cc2ccccc2)C(=O)N[C@H](CCCCN)C(=O)N[C@H](CO)C(=O)N[C@@H]([C@@H](C)CC)C(=O)N2CCC[C@H]2C(=O)N[C@@H]([C@@H](C)CC)C(=O)N2CCC[C@H]2C(=O)N[C@@H]([C@@H](C)CC)C(=O)O[C@@H]1C)C(C)C [Variant D] (Tridecanoyl-[dOrn]VT[dOrn]SF[dK][dS]IPIPI; ester 3-C; N-terminus assumed) | 8
* CCCCCCCCCCCCC(=O)N[C@H](CCCN)C(=O)N[C@H](C(=O)N[C@@H]1C(=O)N[C@H](CCCN)C(=O)N[C@@H](CO)C(=O)N[C@@H](Cc2ccc(O)cc2)C(=O)N[C@H](CCCCN)C(=O)N[C@H](CO)C(=O)N[C@@H]([C@@H](C)CC)C(=O)N2CCC[C@H]2C(=O)N[C@@H]([C@@H](C)CC)C(=O)N2CCC[C@H]2C(=O)N[C@@H]([C@@H](C)CC)C(=O)O[C@@H]1C)C(C)C [Compound A D-form] (Tridecanoyl-[dOrn]VT[dOrn]SY[dK][dS]IPIPI; ester 3-C) | 8
* CCCCCCCCCCCCCCC(=O)N[C@H](CCCN)C(=O)N[C@H](C(=O)N[C@@H]1C(=O)N[C@H](CCCN)C(=O)N[C@@H](CO)C(=O)N[C@@H](Cc2ccc(O)cc2)C(=O)N[C@H](CCCCN)C(=O)N[C@H](CO)C(=O)N[C@@H]([C@@H](C)CC)C(=O)N2CCC[C@H]2C(=O)N[C@@H]([C@@H](C)CC)C(=O)N2CCC[C@H]2C(=O)N[C@@H]([C@@H](C)CC)C(=O)O[C@@H]1C)C(C)C [Compound B] (Pentadecanoyl-[dOrn]VT[dOrn]SY[dK][dS]IPIPI; ester 3-C; N-terminus assumed) | 16
* CCCCCCCCCCC(=O)N[C@H](CCCN)C(=O)N[C@H](C(=O)N[C@@H]1C(=O)N[C@H](CCCN)C(=O)N[C@@H](CO)C(=O)N[C@@H](Cc2ccc(O)cc2)C(=O)N[C@H](CCCCN)C(=O)N[C@H](CO)C(=O)N[C@@H]([C@@H](C)CC)C(=O)N2CCC[C@H]2C(=O)N[C@@H]([C@@H](C)CC)C(=O)N2CCC[C@H]2C(=O)N[C@@H]([C@@H](C)CC)C(=O)O[C@@H]1C)C(C)C [Compound C] (Undecanoyl-[dOrn]VT[dOrn]SY[dK][dS]IPIPI; ester 3-C; N-terminus assumed) | 16

Now examine the next entry.
Inquiry: Look up and state reported MIC for CCCCCCCCCCCCC(=O)N[C@H](CCCN)C(=O)N[C@H](C(=O)N[C@@H]1C(=O)N[C@H](CCCN)C(=O)N[C@@H](CO)C(=O)N[C@@H](Cc2ccc(O)cc2)C(=O)N[C@@H](CCCCN)C(=O)N[C@H](CO)C(=O)N[C@@H]([C@@H](C)CC)C(=O)N2CCC[C@H]2C(=O)N[C@@H]([C@@H](C)CC)C(=O)N2CCC[C@H]2C(=O)N[C@@H]([C@@H](C)CC)C(=O)O[C@@H]1C)C(C)C [Compound A L-form] (Tridecanoyl-[dOrn]VT[dOrn]SYK[dS]IPIPI; ester 3-C)
Reply text: 8

This collection of values is drawn from patent US10906940B2.
